Test system: PC-12
Procedure Summary: Neuroprotective activity against oxygen-glucose deprivation-induced cell injury in rat PC12 cells assessed as cell viability at 1 uM
Format: functional
Conditions Used: read-out: Activity
Please provide measured viability at 1 µM for the entries that follow.
Dear colleague, please return just the value in %, with no unit written.

Look up viability at 1 µM for this molecule: CC(C)=CCc1c(O)cc(O)c2c1OC(c1ccc(O)cc1)CC2=O (stereo not drawn)
89.3

Look up viability at 1 µM for this molecule: `CC(C)=CCc1c(O)cc(O)c2c(=O)cc(-c3ccc(O)c(O)c3O)oc12`
88.6

Look up viability at 1 µM for this molecule: `CC(C)=CCc1c(O)cc(O)c2c1O/C(=C\c1ccc(O)cc1)C2=O`
81.6
